# TESTED_ON: Glycogen synthase kinase-3 (Sus scrofa, UniProt B2LUN4+I6LNT8)
# ASSAY_TEXT: Inhibition of pig brain GSK-3alpha/beta using GS-1 substrate
Below is a list of entries, each paired with its recorded IC50 value.
REPORTED_METRIC: IC50

> print(dat)
                                   molecule                                 tested.on  reported.metric  measured.result
1  COc1ccc2c(I)c3n(c2c1)CC(O)CNC3=O (stereo not given)  Glycogen synthase kinase-3 (Sus scrofa, UniProt B2LUN4+I6LNT8)             IC50           2.2 µM
2  N#Cc1c2n(c3ccccc13)CC(O)CNC2=O (stereo not given)  Glycogen synthase kinase-3 (Sus scrofa, UniProt B2LUN4+I6LNT8)             IC50          > 10 µM
3  Cc1c2n(c3ccccc13)CC(O)CNC2=O (stereo not given)  Glycogen synthase kinase-3 (Sus scrofa, UniProt B2LUN4+I6LNT8)             IC50          > 10 µM
4  Cn1c2c(c3ccccc31)CC(O)CNC2=O (stereo not given)  Glycogen synthase kinase-3 (Sus scrofa, UniProt B2LUN4+I6LNT8)             IC50          > 10 µM
5  CC[C@H](CO)Nc1nc(NCc2ccccc2)c2ncn(C(C)C)c2n1 [SELICICLIB]  Glycogen synthase kinase-3 (Sus scrofa, UniProt B2LUN4+I6LNT8)             IC50            60 µM
